Data credit: patent US20080261986A1

- Assay protocol: Saturated solubility of terbinafine HCl in various solvents
- Format: physicochemical
- Run parameters: aqueous with cosolvent or surfactant or cyclodextrin, thermodynamic from solid, PBS-T (PBS with 5% Tween-80), pH 6.8, 19° C., n = 3
- Description: In order to establish a suitable receiver fluid for use in permeation studies, the saturated solubility of terbinafine HCl at room temperature was determined in various solvents such as, water, phosphate buffered saline (PBS), PBS with 5% Tween-80 (PBS-T), citrate buffer and sodium phosphate buffer. The drug was added to each of the solvents until visual saturation was obtained and the mixtures were left at controlled temperature (19° C.) for 24 hours. […]
Counter-ions that a name gives are not always drawn.

Molecule | solubility at 24 h
CN(C/C=C/C#CC(C)(C)C)Cc1cccc2ccccc12 [terbinafine HCl] | 6020 µg/mL
